- Test system: Dld1 colon carcinoma cells
- assay notes: Antiproliferative activity against Dld1 colon carcinoma cells (nuclei count)
- Format: cell-based, human
- study conditions: Homo sapiens, DLD-1; Table 7, racemate vs enantiomers, procedure of example 56; read-out: IC50 against colon cancer cell lines DLDl
- From the text: For examination of cell line-specific cytotoxicity, compounds were applied to human colorectal cancer cells (HCT116, denoted (1); SW480, denoted (2); Dld-1, denoted (3)) and human fibroblasts (HS-68, denoted (4)), cultured in Mc Coy's ((1)) and Dulbecco's Modified Eagles Medium ((2)-(4)), supplemented with 10% ((1)-(3)) and 20% ((4)) fetal calf serum and 1% penicillin/streptomycin. […]
pIC50: −log10 of the molar value.
readout label: pIC50

>  <molecule>
COc1cc(C2C(C#N)=C(N)Oc3c2ccc2ccc(N)nc32)cc(Br)c1OC (racemic)

>  <quantitative result>
8.00

$$$$

====

- Tested on: Wnt pathway (Wnt1/Frzd8)
- assay notes: Wnt signaling pathway reporter gene assay (6xTCF-luciferase, Wnt1/Frizzled 8/LRP6 stimulated Hek293T cells)
- Format: cell-based, mouse (Wnt1, human (LRP6)
- study conditions: Table 7, racemate vs enantiomers, procedure of example 54; read-out: IC50 against Wnt-Pathway

>  <molecule>
COc1cc(C2C(C#N)=C(N)Oc3c2ccc2ccc(N)nc32)cc(Br)c1OC (single isomer, unassigned) [(20)-2]

>  <value operator>
=

>  <IC50 (nM)>
330

$$$$
>  <molecule>
COc1cc(C2C(C#N)=C(N)Oc3c2ccc2ccc(N)nc32)cc(Br)c1OC (single isomer, unassigned) [(20)-1]

>  <value operator>
<

>  <IC50 (nM)>
5

$$$$

====

- assay notes: Cytotoxicity in Hek293T (CellTiterGlo)
- Format: cell-based
- study conditions: human, Hek293T cells, 24 h after compound addition, 5 nM-100 microM, read-out: Hek293T IC50 (cytotoxic activity)
Documented IC50 at 24 h across a set of compounds
readout label: IC50 at 24 h

>  <compound>
N#CC1=C(N)Oc2cc3ccccc3cc2C1c1cc(F)c(N2CCCCC2)c(F)c1 (stereo not shown)

>  <result>
> 90 µM

$$$$
>  <compound>
COc1cc(C2C(C#N)=C(N)Oc3c2ccc2ncccc32)cc(Br)c1OC (stereo not shown)

>  <result>
> 90 µM

$$$$
>  <compound>
COc1cc(C2C(C#N)=C(N)Oc3c2c(O)nc2ccccc32)cc(Br)c1OC (stereo not shown)

>  <result>
> 90 µM

$$$$
>  <compound>
C=CCOc1c(Br)cc(C2C(C#N)=C(N)Oc3cc4c(cc32)OCO4)cc1OC (stereo not shown)

>  <result>
> 90 µM

$$$$

The measurements presented in this section are drawn from patent US20130296344A1.
